# maps each entry to its growth
System: DU-145 prostate
Assay: NCI-60 one-dose screen, 48 h (100 = growth as untreated, 0 = no growth, -100 = all killed)
Details: 10 µM unless noted
Method: Cells are grown in 96 well plates and exposed to the test compound for 48 hours. Compounds are tested at a single concentration, which is 10^-5 M for most compounds. The reported endpoint is percent growth (GI% or GIPRCNT), where numbers from 0 - 100% represent growth inhibition, and numbers from -100% - 0 represent cell death. For example, a value of 40 represents 60% growth inhibition. A value of 0 means no net growth occurred over the course of the experiment. […]
This is part of a sample that, as a whole, favours compounds with a hit. Of some 83,000 tested, about 20% had one in any assay. Calls of active or inactive are those of the source. The calls were made as follows: active = growth percent below 10; inactive = the rest.

- Compound: "N#Cc1c(-c2cccs2)cc(-c2cccnc2)[nH]c1=O"
  Tested on: "DU-145 prostate"
  Quantity: "growth"
  Result: "109% (inactive)"
- Compound: "CC(C)NC1CCC(Nc2ccnc3cc(Cl)ccc23)CC1 (stereo not given)"
  Tested on: "DU-145 prostate"
  Quantity: "growth"
  Result: "111% (inactive)"

Request: Give the measured growth of "CC1(C)CC2=C3C=C[C@@H]4[C@@]5(C)CCC(=O)C(C)(C)[C@@H]5CC[C@@]4(C)[C@]3(C)CC[C@@]2(C(=O)O)CC1=O" .
Response: 97.2% (inactive)

Request: Give the measured growth of "CC1=NN(c2nc(SCC(=O)Nc3nc4ccc(C)cc4s3)nc(-c3ccccc3)c2C#N)C(=O)C1" .
Response: 113% (inactive)

Request: Give the measured growth of "N#Cc1cccc(NC(=O)c2oc3ccccc3c2-c2cnn(-c3ccccc3)c2)c1" .
Response: 105% [50 µM] (inactive)
